# testedTarget: hGMF-β (human glia maturation factor-β) (Homo sapiens)
# Sequence (P60983 2-142): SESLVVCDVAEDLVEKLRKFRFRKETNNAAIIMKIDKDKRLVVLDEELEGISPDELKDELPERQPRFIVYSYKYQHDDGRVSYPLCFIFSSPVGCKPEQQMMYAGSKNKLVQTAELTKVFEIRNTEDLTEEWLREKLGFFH
property: Kd (µM)
Quick note: give the figure in µM, leave out the unit.

Q: Please tell me the measured Kd for OCc1cccc2[nH]ncc12 ; system: hGMF-β (human glia maturation factor-β) (Homo sapiens).
Ans: 20
